- System: K. pneumoniae NVT1001 and its GyrA/ParC and ΔramR mutants
- Experiment description: Etest MIC of quinolones, GyrA/ParC mutations and AcrAB-TolC overexpression (ΔramR) (Table 10)
- Format: cell-based
- Condition parameters: Klebsiella pneumoniae, ΔramR mutant
Measured property: MIC (µg/mL)
The reply should be a number in µg/mL, with the unit left off.

Illustrative cases are given below, each with its answer.
In: Which MIC value belongs to CCn1cc(C(=O)O)c(=O)c2cc(F)c(N3CCNCC3)cc21 ?
Out: 2

In: Which MIC value belongs to C[C@H]1COc2c(N3CCN(C)CC3)c(F)cc3c(=O)c(C(=O)O)cn1c23 ?
Out: 1

In: Which MIC value belongs to CCn1cc(C(=O)O)c(=O)c2ccc(C)nc21 ?
Out: 32

In: Which MIC value belongs to CC1COc2c(N3CCN(C)CC3)c(F)cc3c(=O)c(C(=O)O)cn1c23 (centres unmarked) ?
Out: 2

Further cases:
In: Which MIC value belongs to COc1c(N2C[C@@H]3CCCN[C@@H]3C2)c(F)cc2c(=O)c(C(=O)O)cn(C3CC3)c12 ?
Out: 1

---

- Test system: K. pneumoniae NVT1001 strains with ESBL or AmpC β-lactamase plasmids
- Experiment description: Etest MIC of β-lactams, OmpK35/36 loss, ΔramR and/or extended-spectrum β-lactamase and AmpC β-lactamase (Table 8)
- Format: cell-based, Klebsiella pneumoniae
- Condition parameters: Klebsiella pneumoniae, DHA-1-AmpR on pACYC177; Δ35 (ΔompK35 mutant)
Measured property: MIC (mg/L)
The reply should be a number in mg/L, with the unit left off.

In: Param readout = MIC; param system = K. pneumoniae NVT1001 strains with ESBL or AmpC β-lactamase plasmids; param query = C[C@@H](O)[C@H]1C(=O)N2C(C(=O)O)=C(S[C@@H]3CN[C@H](CNS(N)(=O)=O)C3)[C@H](C)[C@H]12 [Doripenem] ; response: value
Out: 0.125

In: Param readout = MIC; param system = K. pneumoniae NVT1001 strains with ESBL or AmpC β-lactamase plasmids; param query = C[C@@H](O)[C@H]1C(=O)N2C(C(=O)O)=C(SCCN=CN)C[C@H]12 [Imipenem] ; response: value
Out: 0.5

In: Param readout = MIC; param system = K. pneumoniae NVT1001 strains with ESBL or AmpC β-lactamase plasmids; param query = CCO/N=C(\C(=O)N[C@@H]1C(=O)N2C(C(=O)[O-])=C(Sc3nc(-c4cc[n+](C)cc4)cs3)CS[C@H]12)c1nsc(N)n1 [Ceftaroline] ; response: value
Out: 8

In: Param readout = MIC; param system = K. pneumoniae NVT1001 strains with ESBL or AmpC β-lactamase plasmids; param query = C[C@@H](O)[C@H]1C(=O)N2C(C(=O)O)=C(S[C@@H]3CN[C@H](C(=O)Nc4cccc(C(=O)O)c4)C3)[C@H](C)[C@H]12 [Ertapenem] ; response: value
Out: 1

In: Param readout = MIC; param system = K. pneumoniae NVT1001 strains with ESBL or AmpC β-lactamase plasmids; param query = C[C@H]1[C@H](NC(=O)/C(=N\OC(C)(C)C(=O)O)c2csc(N)n2)C(=O)N1S(=O)(=O)O [Aztreonam] ; response: value
Out: 8

Now for a further compound.
In: Param readout = MIC; param system = K. pneumoniae NVT1001 strains with ESBL or AmpC β-lactamase plasmids; param query = CC(C)(O/N=C(\C(=O)N[C@@H]1C(=O)N2C(C(=O)[O-])=C(C[n+]3ccccc3)CS[C@H]12)c1csc(N)n1)C(=O)O [Ceftazidime] ; response: value
Out: 128

Source of measurements: patent US10760110B2
